Catalogue of molecules with associated Fold Improvement Over Whole Cellulase Broth Tested on PWS
Test system: pretreated wheat straw (PWS)
Experiment: Supplementation of CF-416 whole cellulase broth with single purified enzymes, saccharification of pretreated wheat straw
Type: biochemical
Settings: 0.4% single enzyme added to 0.5% CF-416 whole cellulase broth base; 74 g/L glucan, pH 5.0, 55° C., 50 μM copper
Measurement Kind: Fold Improvement Over Whole Cellulase Broth Tested on PWS

Molecule: GH61f: M. thermophila GH61f (SEQ ID NO:29) (protein, listed as Myceliophthora thermophila) MKSFTLTTLAALAGNAAAHATFQALWVDGVDYGAQCARLPASNSPVTDVTSNAIRCNANPSPARGKCPVKAGSTVTVEMHQQPGDRSCSSEAIGGAHYGPVMVYMSKVSDAASADGSSGWFKVFEDGWAKNPSGGSGDDDYWGTKDLNSCCGKMNVKIPADLPSGDYLLRAEALALHTAGSAGGAQFYMTCYQLTVTGSGSASPPTVSFPGAYKATDPGILVNIHAPLSGYTVPGPAVYSGGSTKKAGSACTGCESTCAVGSGPTATVSQSPGSTATSAPGGGGGCTVQKYQQCGGQGYTGCTNCASGSTCSAVSPPYYSQCV
Result: 1 (fold improvements of >1.2 to <1.5)
--
Molecule: FAE: wild-type M. thermophila ferulic acid esterase (SEQ ID NO:170) (protein, listed as Myceliophthora thermophila) MISVPALALALLAAVQVVESASAGCGKAPPSSGTKSMTVNGKQRQYILQLPNNYDANKAHRVVIGYHWRDGSMNDVANGGFYDLRSRAGDSTIFVAPNGLNAGWANVGGEDITFTDQIVDMLKNDLCVDETQFFATGWSYGGAMSHSVACSRPDVFKAVAVIAGAQLSGCAGGTTPVAYLGIHGAADNVLPIDLGRQLRDKWLQTNGCNYQGAQDPAPGQQAHIKTTYSCSRAPVTWIGHGGGHVPDPTGNNGVKFAPQETWDFFDAAVGAAGAQSPMT
Result: 1 (fold improvements of >1.2 to <1.5)
--
Molecule: AXE3: wild-type M. thermophila acetylxylan esterase (SEQ ID NO:167) (protein, listed as Myceliophthora thermophila) MKLLGKLSAALALAGSRLAAAHPVFDELMRPTAPLVRPRAALQQVTNFGSNPSNTKMFIYVPDKLAPNPPIIVAIHYCTGTAQAYYSGSPYARLADQKGFIVIYPESPYSGTCWDVSSRAALTHNGGGDSNSIANMVTYTLEKYNGDASKVFVTGSSSGAMMTNVMAAAYPELFAAGIAYSGVPAGCFYSQSGGTNAWNSSCANGQINSTPQVWAKMVFDMYPEYDGPRPKMQIYHGSADGTLRPSNYNETIKQWCGVFGFDYTRPDTTQANSPQAGYTTYTWGEQQLVGIYAQGVGHTVPIRGSDDMAFFGL
Result: 1 (fold improvements of >1.2 to <1.5)
--
Molecule: GH61p: M. thermophila GH61p (SEQ ID NO:70; alternative SEQ ID NO:73) (protein, listed as Myceliophthora thermophila) MKLTSSLAVLAAAGAQAHYTFPRAGTGGSLSGEWEVVRMTENHYSHGPVTDVTSPEMTCYQSGVQGAPQTVQVKAGSQFTFSVDPSIGHPGPLQFYMAKVPSGQTAATFDGTGAVWFKIYQDGPNGLGTDSITWPSAGKTEVSVTIPSCIEDGEYLLRVEHTPLPTAPAAQNRARSSPSPAAYKATDPGILFQLYWPIPTEYINPGPAPVSC
Result: 2 (fold improvements of ≧1.5× to <1.7×)
--
Molecule: GH61n: M. thermophila GH61n (SEQ ID NO:62; alternative SEQ ID NO:64) (protein, listed as Myceliophthora thermophila) MTKNAQSKQGVENPTSGDIRCYTSQTAANVVTVPAGSTIHYISTQQINHPGPTQYYLAKVPPGSSAKTFDGSGAVWFKISTTMPTVDSNKQMFWPGQNTYETSNTTIPANTPDGEYLLRVKQIALHMASQPNKVQFYLACTQIKITGGRNGTPSPLVALPGAYKSTDPGILVDIYSMKPESYQPPGPPVWRG
Result: 1 (fold improvements of >1.2 to <1.5)

Source: patent US8951758B2
